System: Euphorbia heterophylla (EPHHL)
Experiment: Post-emergence efficacy, glasshouse, evaluated after 13 days
Assay type: in vivo
Conditions: Euphorbia heterophylla, post-emergence, 312 h, read-out: Control of weed species EPHHL (100=total damage to plant; 0=no damage to plant)
Structures can show the parent of a compound that is named as a salt.
metricName: pest or weed control at 500 g/ha (%)
Lab book: enter the figure in %, no units written.

Please tell me: pest or weed control at 500 g/ha of O=C(O)CC[n+]1ccc(C(=O)N2CCCCC2)cn1 [Compound A24, trifluoroacetate] , system Euphorbia heterophylla (EPHHL)?
90

Please tell me: pest or weed control at 500 g/ha of CNC(=O)c1cc[n+](CCC(=O)O)nc1 [Compound A4, trifluoroacetate] , system Euphorbia heterophylla (EPHHL)?
90

Please tell me: pest or weed control at 500 g/ha of CCNC(=O)c1cc[n+](CCP(=O)(OCC)OCC)nc1 , system Euphorbia heterophylla (EPHHL)?
40

Please tell me: pest or weed control at 500 g/ha of CCNC(=O)c1cc[n+](C[C@H](N)C(=O)O)nc1 [Compound A121, 2,2,2-trifluoroacetate] , system Euphorbia heterophylla (EPHHL)?
30

----------
System: Lolium perenne (LOLPE)
Assay: Post-emergence efficacy, glasshouse, evaluated after 13 days
Assay type: in vivo
Conditions: Lolium perenne, 312 h; post-emergence application, 500 g/Ha, evaluated after 13 days; read-out: Control of weed species LOLPE (100=total damage to plant; 0=no damage to plant)
Method: Seeds of a variety of test species were sown in standard soil in pots. […] The test plants were then grown in a glasshouse under controlled conditions (at 24/16° C., day/night; 14 hours light; 65% humidity) and watered twice daily. After 13 days the test was evaluated (100=total damage to plant; 0=no damage to plant). […]
Provide the reported pest or weed control at 500 g/ha of each item.
Lab book: enter the figure in %, no units written.

Looking for the measured pest or weed control at 500 g/ha of N#Cc1ccc(CNC(=O)c2cc[n+](CCC(=O)O)nc2)cc1 [Compound A96] , can you help?
20

Looking for the measured pest or weed control at 500 g/ha of CCNC(=O)c1cc[n+](CC(C)C(=O)O)nc1 (stereo not drawn) [Compound A60] , can you help?
100

Looking for the measured pest or weed control at 500 g/ha of CCNC(=O)c1cc[n+](C(C)(C)CC(=O)O)nc1 [Compound A71] , can you help?
30

Looking for the measured pest or weed control at 500 g/ha of COCC(C)NC(=O)c1cc[n+](CCC(=O)O)nc1 (stereo not drawn) [Compound A132] , can you help?
90

Looking for the measured pest or weed control at 500 g/ha of CNC(=O)c1cc[n+](CCS(=O)(=O)[O-])nc1-c1ccccc1 [Compound A54] , can you help?
0

Looking for the measured pest or weed control at 500 g/ha of O=C(O)CC[n+]1ccc(C(=O)NCCc2ncccn2)cn1 [Compound A145] , can you help?
70

Looking for the measured pest or weed control at 500 g/ha of O=C(O)CC[n+]1ccc(C(=O)N2CC[S+]([O-])CC2)cn1 [Compound A109] , can you help?
30

Looking for the measured pest or weed control at 500 g/ha of C=CCNC(=O)c1cc[n+](CCNS(=O)(=O)[O-])nc1 [Compound A140] , can you help?
20

Looking for the measured pest or weed control at 500 g/ha of C#CCCNC(=O)c1cc[n+](CCC(=O)O)nc1 [Compound A114] , can you help?
80
